Origin of the recorded values: PubChem BioAssay (NCATS)

tested on: CP247; experiment: qHTS profiling for inhibitors of Plasmodium falciparum proliferation (AID 504749); also: nearly all actives have a fitted effect of over 60% in size; settings: P. falciparum in erythrocytes, SYBR Green DNA, 72 h; series mostly up to 28.7 µM
Inconclusive results are not listed. Active and inactive are the calls of the source. Calls follow the shape of the dose curve; as a rule, active = well fitted inhibition curve with a large enough effect; inconclusive = small, poorly fitted or top-dose-only effect; inactive = flat fitted curve, though single readings scatter.
A correct response names exactly one class from class 1 for active, class 0 for inactive

Known results for compounds:
{"compound": "Nc1ccc(C(=O)O)cc1", "class": "class 0"}
{"compound": "CC(=O)OCC(=O)[C@@]1(OC(C)=O)[C@@H](C)C[C@H]2[C@@H]3C[C@H](F)C4=CC(=O)C=C[C@]4(C)[C@@]3(F)[C@@H](O)C[C@@]21C", "class": "class 0"}
{"compound": "N[C@@H](Cc1cnc[nH]1)C(=O)O", "class": "class 0"}
{"compound": "COc1cc(OC)cc(OC)c1", "class": "class 0"}
{"compound": "c1ccc(-c2ccc(C(c3ccccc3)n3ccnc3)cc2)cc1 (configuration not stated)", "class": "class 1"}
{"compound": "CCn1cc(C(=O)O)c(=O)c2cnc(N3CCCC3)nc21", "class": "class 0"}
{"compound": "COc1ccc(/C=C/C(=O)c2ccc(OC)cc2OC)cc1", "class": "class 1"}
{"compound": "Cc1c(C)n(Cc2ccccc2)c2ccc(C(=O)OCCN(C)C)cc12", "class": "class 0"}
{"compound": "CC(=O)Oc1ccc(C(c2ccc(OC(C)=O)cc2)c2ccccn2)cc1", "class": "class 0"}
{"compound": "NC(=O)C(=O)N/N=C/c1ccc([N+](=O)[O-])o1", "class": "class 0"}

### Prompt Would you mind telling me which call this test gave `NC(CO)(CO)CO` ?
### Response class 0

### Prompt Which outcome did this test record for the compound `Cc1c(C)n(CCN(C)C)c2ccc(C(=O)OCCN(C)C)cc12` ?
### Response class 0

* * *

molecular target: Cytochrome P450 2D6 (Homo sapiens) (UniProt P10635); assay: Cytochrome P450 family 2 subfamily D member 6 (CYP2D6) small molecule antagonists: luciferase biochemical (cell-free) qHTS assay (AID 1645840); details: P450-Glo CYP2D6 enzyme, luciferin luminescence, 1 h; series mostly up to 57.4 µM; also: nearly all actives have a fitted effect of over 55% in size
Sequence (P10635 whole entry, looked up): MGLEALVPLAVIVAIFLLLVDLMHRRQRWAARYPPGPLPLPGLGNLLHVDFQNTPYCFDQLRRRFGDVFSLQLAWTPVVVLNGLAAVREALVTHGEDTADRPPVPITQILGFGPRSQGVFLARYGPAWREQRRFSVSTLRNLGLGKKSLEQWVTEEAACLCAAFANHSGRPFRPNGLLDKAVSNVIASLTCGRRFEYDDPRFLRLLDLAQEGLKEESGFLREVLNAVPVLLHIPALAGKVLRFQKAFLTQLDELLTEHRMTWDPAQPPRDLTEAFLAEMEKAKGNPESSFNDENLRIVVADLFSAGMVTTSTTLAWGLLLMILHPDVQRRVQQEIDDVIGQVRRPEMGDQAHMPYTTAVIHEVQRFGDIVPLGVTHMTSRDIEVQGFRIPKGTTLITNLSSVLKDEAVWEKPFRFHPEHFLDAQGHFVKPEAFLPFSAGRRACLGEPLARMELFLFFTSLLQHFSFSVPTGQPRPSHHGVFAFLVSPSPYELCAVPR
Records with an inconclusive call do not appear. The source made the active and inactive calls. Calls follow the shape of the dose curve; as a rule, active = well fitted inhibition curve with a large enough effect in the repeat runs; inconclusive = weak or mixed curves; inactive = flat fitted curve, though single readings scatter.
Thanks in advance; please answer with one of these: yes for active, no for inactive

// below: answered compounds
{"compound": "C[C@]12CC[C@H]3[C@@H](CCC4=CC(=O)CC[C@@]43C)[C@@H]1CC[C@@H]2C(=O)CO", "class": "no"}
{"compound": "CC1(C)O[C@@H]2[C@@H](CO[C@@]3(COS(N)(=O)=O)OC(C)(C)O[C@@H]23)O1", "class": "no"}
{"compound": "CCCCCCCCCCCCCCNCCO", "class": "yes"}
{"compound": "CCOc1ccc2nc3cc(N)ccc3c(N)c2c1", "class": "yes"}
{"compound": "CCCCOc1ccc(OCCCN2CCOCC2)cc1", "class": "yes"}
{"compound": "CCN(CC)CCOc1ccc(C(O)(Cc2ccc(Cl)cc2)c2ccc(C)cc2)cc1 (configuration not stated)", "class": "yes"}

### Prompt What did the test return for `Cc1cc(=O)n(-c2ccccc2)n1C` ?
### Response no

### Prompt // return assay outcome for `c1ccc(CNCCNCc2ccccc2)cc1`
### Response yes

### Prompt Kindly provide the recorded test outcome for the following compound: `COc1cccc(OC)c1C(=O)N[C@@H]1C(=O)N2[C@@H]1SC(C)(C)[C@@H]2C(=O)O`
### Response no

### Prompt Dear colleague, could you share the recorded outcome for `Nc1ccn([C@@H]2O[C@H](CO)[C@@H](O)C2(F)F)c(=O)n1` when you have a moment?
### Response no

### Prompt Given `Oc1c(I)cc(I)c2cccnc12` , state the outcome it received in this test.
### Response no

### Prompt # lookup: test call for `CCCCC(=O)O[C@]1(C(=O)CO)CC[C@H]2[C@@H]3CCC4=CC(=O)CC[C@]4(C)[C@H]3[C@@H](O)C[C@@]21C`
### Response no

### Prompt Entry `N[C@H](CO)C(=O)O` : call = ?
### Response no

* * *

Each entry below carries its recorded max response.
system: HaCat; assay: Cytotoxic Profiling of Annotated Libraries Using Quantitative High-Throughput Screening (AID 1296008); settings: Five cell lines viability, CellTiter-Glo ATP luminescence, 48-72 h; stronger effect = lower value; also: % is scaled to controls: 0 for no effect and ±100 for the full control effect; nearly all actives have a fitted effect of over 60% in size
Results filed as inconclusive are left out.
Report the value in % with no unit label.

{"compound": "CCC(=O)c1c(O)cc(O)cc1O", "max response (%)": 3.62}
{"compound": "CN1CCCC(CC2c3ccccc3Sc3ccccc32)C1 (stereo not drawn)", "max response (%)": 2.06}
{"compound": "CC(C)(C(=O)c1cccnc1)c1cccnc1", "max response (%)": 3.03}
{"compound": "CCN(CCCc1ccccc1)CCCc1ccccc1", "max response (%)": 0.9}
{"compound": "CC1(C)OC[C@@H](COC(=O)CCc2ccc(OC[C@@H](O)CNCCNC(=O)N3CCOCC3)cc2)O1", "max response (%)": 3.95}

### Prompt What max response value was documented for this compound, `CN(C(=O)CN(CCO)CC(=O)N(C)C(C)(C)Cc1ccccc1)C(C)(C)Cc1ccccc1` ?
### Response -0.203

### Prompt Quick one: max response of `C[C@]12CCC(=O)C=C1[C@@H]1C[C@@H]1[C@H]1[C@@H]3[C@@H]4C[C@@H]4[C@@]4(CCC(=O)O4)[C@@]3(C)CC[C@@H]12` ?
### Response -9.08

### Prompt Looking for the measured max response of `OCc1ccccc1O` , can you help?
### Response -18.5

### Prompt Which max response reading was recorded for the compound `Cc1onc(-c2c(Cl)cccc2Cl)c1C(=O)N[C@@H]1C(=O)N2[C@@H]1SC(C)(C)[C@@H]2C(=O)O` ?
### Response -4.29

### Prompt Quick one: max response of `C=CCc1ccc(O)c(OC)c1` ?
### Response -0.0642

### Prompt Endpoint output: max response of `CCCOC(C(=O)OC1CCN(C)CC1)(c1ccccc1)c1ccccc1` . Value?
### Response -26.2

### Prompt Quick check: max response of `COc1ccc(CN2CCN(C(c3ccc(F)cc3)c3ccc(F)cc3)CC2)c(OC)c1OC` ?
### Response -19.9

* * *

target: Cytochrome P450 2C9 (Homo sapiens); assay: Cytochrome P450 family 2 subfamily C member 9 (CYP2C9) small molecule antagonists: luciferase biochemical (cell-free) qHTS assay (AID 1645842); details: P450-Glo CYP2C9 enzyme assay, luciferin luminescence; series mostly up to 57.4 µM; also: nearly all actives have a fitted effect of over 55% in size
Inconclusive results are not listed. The source made the active and inactive calls. Calls come from the whole dose curve; as a rule, active = well fitted inhibition curve with a large enough effect in the repeat runs; inconclusive = weak or mixed curves; inactive = no such curve, though single readings can be large or run the other way.
Pick one: y = active, n = inactive

Example cases with answers are listed next.
{"molecule": "CC(=O)N/N=C/c1ccc([N+](=O)[O-])o1", "class": "n"}
{"molecule": "CCCCN1CCCC1C(=O)Nc1c(C)cc(C)cc1C (centres undefined)", "class": "n"}
{"molecule": "COc1cc(N)c(Cl)cc1C(=O)NC1CCN(CCCOc2ccc(F)cc2)CC1OC (centres undefined)", "class": "n"}
{"molecule": "NC(CO)(CO)CO", "class": "n"}
{"molecule": "NC(CS)C(=O)O (centres undefined)", "class": "n"}
{"molecule": "O=C(CCN1CCC(c2ccccc2)C1)c1ccc2c(c1)OCCO2 (centres undefined)", "class": "n"}
{"molecule": "CCOc1ccc(NC(=O)CC(C)O)cc1 (centres undefined)", "class": "n"}
{"molecule": "COc1cc2c(cc1OC)C(C(C(=O)N(CCc1ccc(OC)c(OC)c1OC)CCc1ccc(OC)c(OC)c1OC)c1ccccc1)=NCC2 (centres undefined)", "class": "y"}

### Prompt Tell me the recorded outcome of this test for CC(=O)CC(c1ccc([N+](=O)[O-])cc1)c1c(O)c2ccccc2oc1=O (centres undefined) .
### Response y

### Prompt Field: outcome | Entry: `CCN1CCCC1=O`
### Response n

### Prompt Give the logged outcome of this assay for the following molecule: `CCOc1ccc2nc3cc(N)ccc3c(N)c2c1`
### Response n

* * *

tested on: HB3; experiment: qHTS profiling for inhibitors of Plasmodium falciparum proliferation (AID 504749); also: nearly all actives have a fitted effect of over 60% in size; settings: P. falciparum in erythrocytes, SYBR Green DNA, 72 h; series mostly up to 28.7 µM
Records with an inconclusive call do not appear. Active and inactive are the calls of the source. Calls follow the shape of the dose curve; as a rule, active = well fitted inhibition curve with a large enough effect; inconclusive = small, poorly fitted or top-dose-only effect; inactive = flat fitted curve, though single readings scatter.
Pick one: active, inactive

{"molecule": "Cc1cc(=O)n(-c2ccccc2)n1C", "class": "inactive"}
{"molecule": "O=c1ccc2ccccc2o1", "class": "inactive"}
{"molecule": "NC(=O)C(=O)N/N=C/c1ccc([N+](=O)[O-])o1", "class": "inactive"}
{"molecule": "COC1=CC(=O)C[C@@H](C)[C@]12Oc1c(Cl)c(OC)cc(OC)c1C2=O", "class": "inactive"}
{"molecule": "Cc1c(C)n(Cc2ccccc2)c2ccc(C(=O)OCCN(C)C)cc12", "class": "inactive"}

### Prompt # outcome recorded in this test, key = `NCCCC[C@H](N[C@@H](CCc1ccccc1)C(=O)O)C(=O)N1CCC[C@H]1C(=O)O`
### Response inactive

### Prompt Hi, sorry to bother you, what did the test record for `CN(C(=O)CN(CCO)CC(=O)N(C)C(C)(C)Cc1ccccc1)C(C)(C)Cc1ccccc1` ?
### Response inactive

### Prompt Hello, I am checking results. What call was entered for `CCOC(=O)c1cccc(N)c1` ?
### Response inactive

### Prompt Any idea what this test logged for `CCCCC1=NC2(CCCC2)C(=O)N1Cc1ccc(-c2ccccc2-c2nn[nH]n2)cc1` ?
### Response inactive

### Prompt How did this test come out for `OC(CCN1CCCCC1)(c1ccccc1)c1ccccc1` ?
### Response inactive
